- System: thyroid hormone receptor (endogenous TRα and TRβ)
- Design: species or system GH3-TRE-Luc (rat pituitary); GH3-TRE-Luc luciferase reporter, antagonist mode against 1 nM T3, loss of signal, qHTS
- particulars: read-out: Average AC50 (uM) GH3-TRE-Antag, antagonist mode, 1 nM T3, no GH3 cytotoxicity hit
Counter-ions that a name gives are not always drawn.
measuredQuantity: AC50

Exercise: I'd like to know its AC50. The molecule in question is C[C@]12C[C@H](O)[C@H]3[C@@H](CCC4=CC(=O)CC[C@@]43C)[C@@H]1CC[C@@H]2C(=O)CO
Key: > 50 µM

Exercise: Same lookup for CC1(C)S[C@@H]2[C@H](NC(=O)[C@H](N)c3ccccc3)C(=O)N2[C@H]1C(=O)OC1OC(=O)c2ccccc21 (stereo partly drawn) [Talampicillin hydrochloride] , please.
Key: > 20 µM

Exercise: Same lookup for O=C(Nc1ccccc1-c1ccc(Cl)cc1)c1cccnc1Cl , please.
Key: > 100 µM

###

For each entry below, report its AC50 value.
- Test system: thyroid hormone receptor (endogenous TRα and TRβ)
- Set-up: species or system GH3-TRE-Luc (rat pituitary); GH3-TRE-Luc luciferase reporter, antagonist mode against 1 nM T3, loss of signal, qHTS
- particulars: read-out: Average AC50 (uM) GH3-TRE-Antag, antagonist mode, 1 nM T3, no GH3 cytotoxicity hit

Exercise: I'd like to know its AC50. The compound in question is COc1ccc(C(=O)c2ccccc2O)c(O)c1 [2,2'-Dihydroxy-4-methoxybenzophenone]
Key: > 20 µM

Exercise: Same lookup for CCCCCC(C=O)=Cc1ccccc1 , please.
Key: > 50 µM

Exercise: Same lookup for CS(=O)(=O)Nc1ccc([N+](=O)[O-])cc1Oc1ccccc1 [Nimesulide] , please.
Key: > 20 µM

Exercise: Same lookup for Cc1ccc(S(=O)(=O)NC2CCCCC2)cc1 [N-Cyclohexyl-4-methylbenzenesulfonamide] , please.
Key: > 90 µM

Exercise: Same lookup for O=C(O)c1cc(I)cc(I)c1I , please.
Key: > 100 µM

###

- System: thyroid hormone receptor (endogenous TRα and TRβ)
- Design: species or system GH3-TRE-Luc (rat pituitary); GH3-TRE-Luc luciferase reporter, antagonist mode against 1 nM T3, loss of signal, qHTS
- particulars: read-out: Average AC50 (uM) GH3-TRE-Antag, antagonist mode, 1 nM T3, no GH3 cytotoxicity hit
Counter-ions that a name gives are not always drawn.
For each entry below, report its log10 of AC50 value.
Log10 applied to AC50; unit prior to transform: µM.

Exercise: I'd like to know its log10 of AC50. The molecule in question is O=C(O)c1ccccc1Nc1cccc(C(F)(F)F)c1 [Flufenamic acid]
Key: 1.47

Exercise: Same lookup for CC[C@H](C)C(=O)O[C@H]1C[C@H](O)C=C2C=C[C@H](C)[C@H](CC[C@@H](O)C[C@@H](O)CC(=O)O)[C@H]21 [Pravastatin sodium] , please.
Key: 1.26

Exercise: Same lookup for C[C@@H]1C[C@H]2[C@@H]3CCC4=CC(=O)C=C[C@]4(C)[C@@]3(Cl)[C@@H](O)C[C@]2(C)[C@@]1(OC(=O)c1ccco1)C(=O)CCl [Mometasone furoate] , please.
Key: 1.23

Exercise: Same lookup for Nc1cc(S(=O)(=O)O)cc2cc(S(=O)(=O)O)cc(O)c12 , please.
Key: 1.72

Exercise: Same lookup for S=C(NC1CCCCC1)NC1CCCCC1 [N,N'-Dicyclohexylthiourea] , please.
Key: 1.76

Exercise: Same lookup for O=C1OC(OC(=O)c2cccnc2Nc2cccc(C(F)(F)F)c2)c2ccccc21 (centres unmarked) [Talniflumate] , please.
Key: 1.00

Exercise: Same lookup for [H]/N=C(\N/C(=N/[H])Nc1ccc(Cl)cc1)NC(C)C [Proguanil hydrochloride] , please.
Key: 0.37
